target: T1, IGF-II (amino acids 1-67) (human, UniProt P01344 25-91); test: competition SPR (Biacore T100), affinity in solution: Fab pre-incubated with ligand, free ligand read on immobilized huIR-A ECD; measurement #1; head prints 'KD nM'
T1 construct: mature; also called IGF-II (67aa); IGF2
T1 sequence (P01344 25-91): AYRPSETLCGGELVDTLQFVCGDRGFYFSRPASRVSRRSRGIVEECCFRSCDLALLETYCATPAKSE
EXPERIMENTAL READOUT: Kd (nM)
Supply the numeric figure in nM, leaving out any unit text.

Task: Can you look up the measured Kd of M0064-F02 Fab (Fab, V domains shown, Soluble Fab from phage display; also called M0064-F02(R0032-A11); 566A-M0064-F02) VH: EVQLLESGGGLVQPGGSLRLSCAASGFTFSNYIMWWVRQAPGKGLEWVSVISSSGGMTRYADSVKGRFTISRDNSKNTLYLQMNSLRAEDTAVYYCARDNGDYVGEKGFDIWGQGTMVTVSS VL: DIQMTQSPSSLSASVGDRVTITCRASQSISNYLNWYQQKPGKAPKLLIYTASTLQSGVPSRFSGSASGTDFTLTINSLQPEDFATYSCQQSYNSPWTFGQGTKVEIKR for me?
Result: 1.03

Task: Please give the measured Kd for this binder: M0070-H08 Fab (Fab, V domains shown, Soluble Fab from phage display; also called M0070-H08(R0032-A07)) VH: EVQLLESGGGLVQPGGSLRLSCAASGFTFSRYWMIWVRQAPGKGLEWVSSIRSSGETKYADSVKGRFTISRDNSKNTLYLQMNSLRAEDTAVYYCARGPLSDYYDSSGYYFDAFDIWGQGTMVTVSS VL: DIQMTQSPSSLSASAGDRVTITCRASQSISSYLNWYQQKPGKAPNLLIYTTSNLQGGVPSRFSGSGSGTDFTLTISSLQPEDFATYYCQQGYSFPLTFGGGTKVEIKR
Result: 3.24

Task: Using the record for M0072-C06 Fab (Fab, V domains shown, Soluble Fab from phage display; Often printed as M0072-006; also called M0072-006; M0072-C06(R0032-A09)) VH: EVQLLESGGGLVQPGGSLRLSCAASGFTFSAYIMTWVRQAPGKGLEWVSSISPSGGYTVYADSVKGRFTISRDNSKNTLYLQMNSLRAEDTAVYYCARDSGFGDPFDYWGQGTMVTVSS VL: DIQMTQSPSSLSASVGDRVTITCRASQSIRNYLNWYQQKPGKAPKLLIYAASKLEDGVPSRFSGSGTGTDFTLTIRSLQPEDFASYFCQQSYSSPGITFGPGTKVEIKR , report its Kd.
Result: 1.64

Task: Reported Kd for M0072-G06 Fab (Fab, V domains shown, Soluble Fab from phage display; also called M0072-G06(R0032-C05)) VH: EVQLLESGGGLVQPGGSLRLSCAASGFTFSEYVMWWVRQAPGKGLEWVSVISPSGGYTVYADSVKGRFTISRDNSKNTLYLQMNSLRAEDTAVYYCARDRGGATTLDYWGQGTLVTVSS VL: DIQMTQSPSTLSASVGDRVTITCRASQTISSWLAWYQQKPGKAPKLMIYKAASLGSEVPSRFSGSGSGTEFTLTISSLQPEDFSTYYCQQYKTYPVTFGQGTRLEIKR : what is it?
Result: 3.99

Task: Which Kd value belongs to M0064-E04 Fab (Fab, V domains shown, Soluble Fab from phage display; also called M0064-E04(R0032-A03); 566A-M0064-E04) VH: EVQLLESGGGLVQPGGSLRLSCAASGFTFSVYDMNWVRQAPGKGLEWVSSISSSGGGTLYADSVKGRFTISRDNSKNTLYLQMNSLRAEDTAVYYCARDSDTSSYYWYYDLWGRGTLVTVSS VL: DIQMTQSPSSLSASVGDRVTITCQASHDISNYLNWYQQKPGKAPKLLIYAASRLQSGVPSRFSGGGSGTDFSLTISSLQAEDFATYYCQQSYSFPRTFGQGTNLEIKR ?
Result: 0.608

Task: Could you tell me which Kd is on file for M0063-F02 Fab (Fab, V domains shown, Soluble Fab from phage display; also called M0063-F02(R0032-A01)) VH: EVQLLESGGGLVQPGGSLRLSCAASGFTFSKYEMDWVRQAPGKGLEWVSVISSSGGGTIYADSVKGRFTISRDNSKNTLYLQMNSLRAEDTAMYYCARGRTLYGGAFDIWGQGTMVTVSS VL: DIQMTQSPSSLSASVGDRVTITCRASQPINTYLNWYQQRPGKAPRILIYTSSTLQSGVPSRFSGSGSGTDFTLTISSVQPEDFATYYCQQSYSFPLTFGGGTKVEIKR ?
Result: 1.17

Recorded values, source patent US20110262446A1.
